# study target: Sodium-dependent serotonin transporter (Homo sapiens)
# assay text: Displacement of [3H]citalopram from human recombinant SERT by SPA
pKi: −log10 of the molar value.
metric name: pKi

# compound, reported value
data = [
    ("COC[C@@]12CNCC[C@]1(c1ccc(Cl)c(Cl)c1)C2 (relative stereo; 17) [GSK1360707]", 8.98),
]

###

# study target: Transporter (Rattus norvegicus, UniProt Q63380)
# Sequence (Q63380 whole entry): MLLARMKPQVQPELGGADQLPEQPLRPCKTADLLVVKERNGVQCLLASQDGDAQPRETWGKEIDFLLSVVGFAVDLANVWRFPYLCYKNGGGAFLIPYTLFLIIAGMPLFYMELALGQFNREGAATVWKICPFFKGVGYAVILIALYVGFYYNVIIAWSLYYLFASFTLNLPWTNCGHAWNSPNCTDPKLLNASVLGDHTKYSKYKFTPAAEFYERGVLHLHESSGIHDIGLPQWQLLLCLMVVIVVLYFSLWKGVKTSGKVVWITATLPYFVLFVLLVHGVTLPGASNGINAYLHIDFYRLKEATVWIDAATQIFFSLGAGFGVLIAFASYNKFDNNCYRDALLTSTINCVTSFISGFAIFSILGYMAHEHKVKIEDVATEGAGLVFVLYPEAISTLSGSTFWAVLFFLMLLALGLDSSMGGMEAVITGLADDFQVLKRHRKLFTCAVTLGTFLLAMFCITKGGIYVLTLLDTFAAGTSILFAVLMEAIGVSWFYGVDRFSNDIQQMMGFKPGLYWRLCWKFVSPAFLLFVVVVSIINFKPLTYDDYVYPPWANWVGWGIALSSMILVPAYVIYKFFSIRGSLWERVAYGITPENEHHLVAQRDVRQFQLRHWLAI

# molecule, unit name, Ki
rows = [
    ("COC[C@@]12CNCC[C@]1(c1ccc(Cl)c(Cl)c1)C2 (relative stereo; 17)", "nM", 2.51),
]

###

# study target: Sodium-dependent serotonin transporter (Homo sapiens, UniProt P31645)
# Sequence (P31645 whole entry): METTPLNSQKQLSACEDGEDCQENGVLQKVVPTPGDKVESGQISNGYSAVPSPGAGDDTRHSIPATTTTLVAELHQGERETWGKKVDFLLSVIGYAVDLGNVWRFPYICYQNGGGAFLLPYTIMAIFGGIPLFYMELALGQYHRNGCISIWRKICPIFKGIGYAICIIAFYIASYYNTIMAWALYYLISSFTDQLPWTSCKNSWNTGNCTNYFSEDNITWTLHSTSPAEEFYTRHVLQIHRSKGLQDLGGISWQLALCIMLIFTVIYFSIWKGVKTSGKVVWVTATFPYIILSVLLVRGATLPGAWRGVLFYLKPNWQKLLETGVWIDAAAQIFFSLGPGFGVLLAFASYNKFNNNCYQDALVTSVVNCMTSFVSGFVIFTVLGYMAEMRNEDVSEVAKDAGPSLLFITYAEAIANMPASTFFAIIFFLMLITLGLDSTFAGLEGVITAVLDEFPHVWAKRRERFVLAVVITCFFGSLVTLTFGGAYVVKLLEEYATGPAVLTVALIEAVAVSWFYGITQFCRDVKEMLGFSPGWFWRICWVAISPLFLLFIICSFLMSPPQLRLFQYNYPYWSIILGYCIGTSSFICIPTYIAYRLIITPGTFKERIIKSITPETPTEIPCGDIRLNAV
# assay text: Inhibition of [3H]serotonin reuptake at human SERT expressed in pig LLCPK cells after 1 hr

# compound, IC50 (nM)
rows = [
    ("COC[C@@]12CNCC[C@]1(c1ccc(Cl)c(Cl)c1)C2 (relative stereo; 17) [GSK1360707]", 3.98),
]

###

# assay text: Ratio of drug level in brain to blood in rat
# Assay type: ADME, tissue-based
metric name: Kp

# compound, reported value
measured = [
    ("COC[C@@]12CNCC[C@]1(c1ccc(Cl)c(Cl)c1)C2 (relative stereo; 17) [GSK1360707]", 6.3),
]

###

# study target: Sodium-dependent dopamine transporter (Homo sapiens)
# Sequence (Q01959 whole entry): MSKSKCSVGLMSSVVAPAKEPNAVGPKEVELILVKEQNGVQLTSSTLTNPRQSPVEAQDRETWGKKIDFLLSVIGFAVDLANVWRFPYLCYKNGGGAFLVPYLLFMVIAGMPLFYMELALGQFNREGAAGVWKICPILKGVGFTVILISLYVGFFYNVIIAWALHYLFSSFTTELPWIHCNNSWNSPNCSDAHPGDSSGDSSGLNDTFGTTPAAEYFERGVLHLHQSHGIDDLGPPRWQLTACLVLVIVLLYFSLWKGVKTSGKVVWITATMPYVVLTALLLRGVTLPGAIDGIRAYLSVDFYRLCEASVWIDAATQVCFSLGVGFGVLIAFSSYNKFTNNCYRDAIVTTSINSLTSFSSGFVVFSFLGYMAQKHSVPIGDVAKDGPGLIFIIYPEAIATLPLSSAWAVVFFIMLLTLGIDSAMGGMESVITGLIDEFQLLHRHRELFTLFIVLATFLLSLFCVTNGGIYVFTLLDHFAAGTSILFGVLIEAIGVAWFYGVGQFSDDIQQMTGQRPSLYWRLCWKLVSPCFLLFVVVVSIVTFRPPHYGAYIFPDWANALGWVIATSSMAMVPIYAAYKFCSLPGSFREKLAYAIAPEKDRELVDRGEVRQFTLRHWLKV
# assay text: Displacement of [N-methyl-3H]WIN-35428 from human recombinant DAT expressed in pig LLCPK cells after 2 hrs by liquid scintillation counting
# Type: cell-based
Assign labels as follows, please: rule met for Ki below 100 nM; rule not met for Ki equal to or exceeding 100 nM.

# compound, assigned class
rows = [
    ("COC[C@@]12CCNC[C@]1(c1ccc(Cl)c(Cl)c1)C2 (single isomer, unassigned)", "rule not met"),
    ("Clc1ccc([C@]23CCN4CC[C@]2(C4)C3)cc1Cl (single isomer, unassigned; 49)", "rule met"),
    ("COC[C@@]12CNCC[C@]1(c1ccc3ccccc3c1)C2 (single isomer, unassigned; 28)", "rule met"),
    ("COC[C@@]12CN(C)CC[C@]1(c1ccc(Cl)c(Cl)c1)C2", "rule met"),
    ("Clc1ccc([C@]23CNCC[C@H]2C3)cc1Cl (relative stereo; 4)", "rule met"),
    ("COC[C@H]1[C@@H]2CNCC[C@@]21c1ccc(Cl)c(Cl)c1 (racemic)", "rule not met"),
    ("COC[C@@H]1[C@@H]2CNCC[C@]12c1ccc(Cl)c(Cl)c1 (racemic)", "rule not met"),
]

###

Let's go through some pIC50 measurements on Cytochrome P450 2D6 (Homo sapiens, UniProt P10635) together.
Sequence (P10635 whole entry): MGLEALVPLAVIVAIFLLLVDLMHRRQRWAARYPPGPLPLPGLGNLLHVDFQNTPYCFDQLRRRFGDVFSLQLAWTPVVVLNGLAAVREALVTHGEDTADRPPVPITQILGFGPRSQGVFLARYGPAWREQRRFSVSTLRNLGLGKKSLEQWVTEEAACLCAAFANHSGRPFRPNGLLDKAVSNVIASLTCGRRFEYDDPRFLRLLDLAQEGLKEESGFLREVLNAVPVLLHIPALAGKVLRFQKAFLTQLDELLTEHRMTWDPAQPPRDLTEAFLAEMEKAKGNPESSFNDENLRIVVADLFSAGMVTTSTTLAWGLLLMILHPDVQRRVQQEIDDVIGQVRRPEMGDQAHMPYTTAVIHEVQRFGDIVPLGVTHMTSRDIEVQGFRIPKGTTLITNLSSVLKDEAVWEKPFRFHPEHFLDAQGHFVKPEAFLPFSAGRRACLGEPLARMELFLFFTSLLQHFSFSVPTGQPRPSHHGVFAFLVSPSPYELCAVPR
pIC50: −log10 of the molar value.

# compound, pIC50
rows = [
    ("COC[C@@]12CNCC[C@]1(c1ccc(Cl)c(Cl)c1)C2 (relative stereo; 18) [GSK1360707]", 5.52),
    ("COC[C@@]12CNCC[C@]1(c1ccc(Cl)c(Cl)c1)C2 (relative stereo; 17) [GSK1360707]", 5.52),
    ("C=CCC(OC)[C@]12CNCC[C@]1(c1ccc(Cl)c(Cl)c1)C2 (mixture of isomers; form 1)", 5.52),
    ("COC[C@@]12CNCC[C@]1(c1ccc3ccccc3c1)C2 (single isomer, unassigned; 28)", 5.10),
    ("COC[C@@]12CNCC[C@]1(c1ccc(Cl)c(Cl)c1)C2 (racemic) [GSK1360707]", 5.52),
]

Just for reference, ChEMBL document CHEMBL1177725 is where these values come from.
